B1: TPR t1 (parent)
chain: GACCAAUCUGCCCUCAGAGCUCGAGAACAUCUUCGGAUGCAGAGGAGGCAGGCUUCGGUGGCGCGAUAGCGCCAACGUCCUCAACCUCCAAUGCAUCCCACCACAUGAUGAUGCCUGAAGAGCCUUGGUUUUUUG

- Variants of: B1
- measurement-description: polymerase ribozyme fitness, log enrichment relative to wild type (log ratio); higher = more active; in vitro selection for triplet polymerase activity
Listing of entries alongside the reported polymerase ribozyme fitness (log ratio).
Keep the answer to the number alone.

>  <variant-key>
G19U C53G C73A U112A G135A

>  <polymerase ribozyme fitness (log ratio)>
-0.754

$$$$

Q: What measured polymerase ribozyme fitness (log ratio) goes with C3A A43U ?
Ans: -2.69

Q: What measured polymerase ribozyme fitness (log ratio) goes with C62A C82A A121G ?
Ans: 1.58

Q: What measured polymerase ribozyme fitness (log ratio) goes with G17C G48A C80U A83C A95G C123G ?
Ans: -6.14

Q: What measured polymerase ribozyme fitness (log ratio) goes with A84C C114G G127A ?
Ans: -4.73

Q: What measured polymerase ribozyme fitness (log ratio) goes with G69A G110C ?
Ans: -6.02

Q: What measured polymerase ribozyme fitness (log ratio) goes with G39C C115U G120C ?
Ans: -1.04
